Source listed as ChEMBL document CHEMBL1153157.

target or test system: Cytochrome P450 3A4 (Homo sapiens, UniProt P08684)
Sequence (P08684 whole entry): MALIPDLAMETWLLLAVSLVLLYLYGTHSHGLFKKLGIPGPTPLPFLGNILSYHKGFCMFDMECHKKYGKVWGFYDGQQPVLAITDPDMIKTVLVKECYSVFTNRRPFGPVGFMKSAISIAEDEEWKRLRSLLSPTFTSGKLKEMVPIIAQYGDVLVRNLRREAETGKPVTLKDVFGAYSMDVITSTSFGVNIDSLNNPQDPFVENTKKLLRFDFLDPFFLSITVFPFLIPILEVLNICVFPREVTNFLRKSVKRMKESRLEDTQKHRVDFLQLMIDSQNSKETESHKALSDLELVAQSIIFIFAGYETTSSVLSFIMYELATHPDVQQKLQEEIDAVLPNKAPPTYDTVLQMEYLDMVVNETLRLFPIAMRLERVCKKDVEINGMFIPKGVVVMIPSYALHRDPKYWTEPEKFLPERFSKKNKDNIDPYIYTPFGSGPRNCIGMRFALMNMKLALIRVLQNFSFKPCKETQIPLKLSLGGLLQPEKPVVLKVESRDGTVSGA
pIC50: −log10 of the molar value.
parameter measured: pIC50

C[C@@H](NC(=O)c1ccc2c(c1)nc(-c1ccoc1)n2C1CCCCC1)C(=O)Nc1ccc(/C=C/C(=O)O)cc1    4.91
